TARGET OR SYSTEM: Citrate synthase, peroxisomal (Saccharomyces cerevisiae (strain ATCC 204508 / S288c))
PROTOCOL: CIT2-GFP expression modulators in yeast, dose response, flow cytometry, MLPCN hits (AID 2744)
TEST CONTEXT: S. cerevisiae CIT2-GFP strain, 3 h, at 33 µM (top of the series)
Active and inactive are the calls of the source.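 The calls were made as follows: active = fitted half-maximal concentration for changing reporter fluorescence at or below a set limit; inactive = the rest.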
VALUE TYPE: GFP fluorescence, higher = induction

COMPOUND: Cc1ccc(-c2nn(C(C)(C)C)c3ncnc(N)c23)cc1
VALUE TYPE: GFP fluorescence, higher = induction
OBSERVED MEASUREMENT: inactive
--
COMPOUND: Cc1ccc(/C=C2/C(=O)ON=C2c2ccccc2)o1
VALUE TYPE: GFP fluorescence, higher = induction
OBSERVED MEASUREMENT: inactive
--
COMPOUND: CC(C)(C)C(=O)NC(=S)NNC(=O)c1ccc(-c2ccccc2)cc1
VALUE TYPE: GFP fluorescence, higher = induction
OBSERVED MEASUREMENT: inactive
--
COMPOUND: CN1CCN(C(c2ccc(C(F)(F)F)cc2)c2ccc3cccnc3c2O)CC1 (stereo unspecified)
VALUE TYPE: GFP fluorescence, higher = induction
OBSERVED MEASUREMENT: inactive
--
COMPOUND: CCCN1CCc2c(sc(NC(=S)NC(=O)c3ccccc3)c2C#N)C1
VALUE TYPE: GFP fluorescence, higher = induction
OBSERVED MEASUREMENT: inactive
--
COMPOUND: O=C(NNC(=S)NC(=O)C12CC3CC(CC(C3)C1)C2)c1ccncc1
VALUE TYPE: GFP fluorescence, higher = induction
OBSERVED MEASUREMENT: inactive

Cited source: PubChem BioAssay AID2744
